Exercise: state measured Kd for each of the binders provided.
- TARGET_UNDER_TEST: VEGFR1-pY1213mod
- TEST_SUMMARY: fluorescence polarization
Note: unit nM is implicit; provide only the numeric part.

Data request: Fill in the blank: the reported Kd of S10A K15L (designed binder) MKIEEHHHHHHSSGRENLYFQGGAAQPAAPVDSIQAEEWYFGKLGRKDAERQLLSFGNPRGTFLIRESETTKGAYALSIRDWDDMKGDHVKHYLIRKLDNGGYYITTRAQFETLQQLVQHYSERAAGLSSRLVVPSHKGAAA is ____.
Data returned: 400

Data request: Fill in the blank: the reported Kd of S10V (designed binder) MKIEEHHHHHHSSGRENLYFQGGAAQPAAPVDSIQAEEWYFGKLGRKDAERQLLSFGNPRGTFLIRESETTKGAYVLSIRDWDDMKGDHVKHYKIRKLDNGGYYITTRAQFETLQQLVQHYSERAAGLSSRLVVPSHKGAAA is ____.
Data returned: 9000

Data request: Fill in the blank: the reported Kd of S10A (designed binder) MKIEEHHHHHHSSGRENLYFQGGAAQPAAPVDSIQAEEWYFGKLGRKDAERQLLSFGNPRGTFLIRESETTKGAYALSIRDWDDMKGDHVKHYKIRKLDNGGYYITTRAQFETLQQLVQHYSERAAGLSSRLVVPSHKGAAA is ____.
Data returned: 5800

Data request: Fill in the blank: the reported Kd of S10V K15L (designed binder) MKIEEHHHHHHSSGRENLYFQGGAAQPAAPVDSIQAEEWYFGKLGRKDAERQLLSFGNPRGTFLIRESETTKGAYVLSIRDWDDMKGDHVKHYLIRKLDNGGYYITTRAQFETLQQLVQHYSERAAGLSSRLVVPSHKGAAA is ____.
Data returned: 1600

Data request: Fill in the blank: the reported Kd of T8V K15L (designed binder) MKIEEHHHHHHSSGRENLYFQGGAAQPAAPVDSIQAEEWYFGKLGRKDAERQLLSFGNPRGTFLIRESETVKGAYSLSIRDWDDMKGDHVKHYLIRKLDNGGYYITTRAQFETLQQLVQHYSERAAGLSSRLVVPSHKGAAA is ____.
Data returned: 440

Data request: Fill in the blank: the reported Kd of T7S S10A K15L (designed binder) MKIEEHHHHHHSSGRENLYFQGGAAQPAAPVDSIQAEEWYFGKLGRKDAERQLLSFGNPRGTFLIRESESTKGAYALSIRDWDDMKGDHVKHYLIRKLDNGGYYITTRAQFETLQQLVQHYSERAAGLSSRLVVPSHKGAAA is ____.
Data returned: 640

Data request: Fill in the blank: the reported Kd of K15L (designed binder) MKIEEHHHHHHSSGRENLYFQGGAAQPAAPVDSIQAEEWYFGKLGRKDAERQLLSFGNPRGTFLIRESETTKGAYSLSIRDWDDMKGDHVKHYLIRKLDNGGYYITTRAQFETLQQLVQHYSERAAGLSSRLVVPSHKGAAA is ____.
Data returned: 2800
